# TGT: NMDA-receptor subtype 2B (Rattus norvegicus, UniProt P35439+Q00960)
# Construct: Membranes were prepared by homogenization of the whole brain minus cerebellum and medulla oblongata
# Sequence (Q00960 27-1482, other chains not shown): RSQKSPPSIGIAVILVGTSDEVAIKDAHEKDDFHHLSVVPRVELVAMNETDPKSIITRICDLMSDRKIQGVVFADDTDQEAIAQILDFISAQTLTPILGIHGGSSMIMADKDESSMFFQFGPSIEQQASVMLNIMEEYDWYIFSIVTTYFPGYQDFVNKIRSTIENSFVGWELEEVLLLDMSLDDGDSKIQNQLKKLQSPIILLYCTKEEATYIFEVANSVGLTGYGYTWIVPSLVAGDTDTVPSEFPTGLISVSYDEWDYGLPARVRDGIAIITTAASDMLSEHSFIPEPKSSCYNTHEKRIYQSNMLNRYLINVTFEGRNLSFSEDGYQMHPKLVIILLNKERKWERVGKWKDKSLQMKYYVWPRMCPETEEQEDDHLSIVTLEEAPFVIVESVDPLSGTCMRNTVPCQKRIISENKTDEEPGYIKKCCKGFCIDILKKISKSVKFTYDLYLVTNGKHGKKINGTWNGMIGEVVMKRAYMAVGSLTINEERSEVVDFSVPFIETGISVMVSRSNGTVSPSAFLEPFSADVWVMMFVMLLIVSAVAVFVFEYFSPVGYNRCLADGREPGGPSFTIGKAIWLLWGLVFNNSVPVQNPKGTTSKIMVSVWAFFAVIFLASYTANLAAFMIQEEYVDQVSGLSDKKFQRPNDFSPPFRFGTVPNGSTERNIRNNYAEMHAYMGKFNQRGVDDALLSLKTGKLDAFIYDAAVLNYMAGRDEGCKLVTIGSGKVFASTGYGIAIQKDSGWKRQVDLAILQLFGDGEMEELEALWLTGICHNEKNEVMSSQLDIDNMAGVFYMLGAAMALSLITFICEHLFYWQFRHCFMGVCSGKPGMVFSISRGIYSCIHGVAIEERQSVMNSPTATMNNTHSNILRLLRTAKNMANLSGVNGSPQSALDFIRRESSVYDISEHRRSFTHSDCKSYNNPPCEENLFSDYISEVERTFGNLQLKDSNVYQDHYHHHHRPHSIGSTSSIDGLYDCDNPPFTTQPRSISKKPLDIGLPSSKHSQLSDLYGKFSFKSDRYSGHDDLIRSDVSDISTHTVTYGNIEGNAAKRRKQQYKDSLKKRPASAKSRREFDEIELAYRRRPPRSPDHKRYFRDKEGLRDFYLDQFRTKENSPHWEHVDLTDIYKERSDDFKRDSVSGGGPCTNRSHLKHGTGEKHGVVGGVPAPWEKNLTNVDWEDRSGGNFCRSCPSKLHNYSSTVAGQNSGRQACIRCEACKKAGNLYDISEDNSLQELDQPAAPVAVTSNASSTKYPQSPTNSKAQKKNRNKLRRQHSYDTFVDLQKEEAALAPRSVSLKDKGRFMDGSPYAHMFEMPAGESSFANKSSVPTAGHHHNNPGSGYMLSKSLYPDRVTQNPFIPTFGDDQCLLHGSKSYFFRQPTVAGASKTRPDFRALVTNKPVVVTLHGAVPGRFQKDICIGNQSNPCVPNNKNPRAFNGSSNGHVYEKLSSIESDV
# ASSAY NAME: 3H-Ro 25-6981 binding (displacement) on rat brain membranes
# MEASUREMENT SETUP: displacement of 5 nM 3H-Ro 25-6981, rat whole brain membranes (minus cerebellum and medulla oblongata), 2 hours at 4° C.
EXPERIMENTAL READOUT: pIC50
By convention, pIC50 is the negative base-10 log of a molar concentration.

Could you share what pIC50 was measured for `Cc1nccn1Cc1cn(-c2cccc(C(C)(F)F)c2)cn1.Cl.Cl` , tested on NMDA-receptor subtype 2B (Rattus norvegicus, UniProt P35439+Q00960)?
8.04

Could you share what pIC50 was measured for `Cc1nccn1Cc1cn(-c2cccc(C(C)(C)C)c2)cn1.Cl.Cl` , tested on NMDA-receptor subtype 2B (Rattus norvegicus, UniProt P35439+Q00960)?
7.28

Could you share what pIC50 was measured for `Cc1nccn1Cc1ncn(-c2ccc(Cl)c(Cl)c2)c1C.Cl.Cl` , tested on NMDA-receptor subtype 2B (Rattus norvegicus, UniProt P35439+Q00960)?
7.37

Could you share what pIC50 was measured for `Cl.Cl.Fc1ccc(-n2cnc(Cn3ccnc3)c2)cc1Br` , tested on NMDA-receptor subtype 2B (Rattus norvegicus, UniProt P35439+Q00960)?
7.39

Could you share what pIC50 was measured for `Cc1ccc(-n2cnc(Cn3ccnc3)c2)cc1C` , tested on NMDA-receptor subtype 2B (Rattus norvegicus, UniProt P35439+Q00960)?
7.37

Could you share what pIC50 was measured for `OCc1nccn1Cc1cn(-c2ccc(Cl)c(Cl)c2)cn1` , tested on NMDA-receptor subtype 2B (Rattus norvegicus, UniProt P35439+Q00960)?
7.07

Could you share what pIC50 was measured for `CCc1nccn1Cc1cn(-c2cccc(C(C)C)c2)cn1` , tested on NMDA-receptor subtype 2B (Rattus norvegicus, UniProt P35439+Q00960)?
7.70

Could you share what pIC50 was measured for `Cc1nccn1Cc1cn(-c2ccc3c(c2)OCO3)cn1.Cl.Cl` , tested on NMDA-receptor subtype 2B (Rattus norvegicus, UniProt P35439+Q00960)?
7.11

Could you share what pIC50 was measured for `Cl.Cl.Fc1ccc(-n2cnc(Cn3ccnc3)c2)cc1C(F)F` , tested on NMDA-receptor subtype 2B (Rattus norvegicus, UniProt P35439+Q00960)?
7.34

Could you share what pIC50 was measured for `Cc1nccn1Cc1cn(-c2ccc(OC(F)(F)F)c(Cl)c2)cn1.Cl.Cl` , tested on NMDA-receptor subtype 2B (Rattus norvegicus, UniProt P35439+Q00960)?
7.28

Could you share what pIC50 was measured for `CCc1nccn1Cc1cn(-c2ccc(F)c(C(C)(F)F)c2)cn1` , tested on NMDA-receptor subtype 2B (Rattus norvegicus, UniProt P35439+Q00960)?
7.85

Could you share what pIC50 was measured for `Cc1cc(-n2cnc(Cn3ccnc3C)c2)ccc1F.Cl.Cl` , tested on NMDA-receptor subtype 2B (Rattus norvegicus, UniProt P35439+Q00960)?
7.80

Could you share what pIC50 was measured for `Cc1nccn1Cc1cncc(-c2ccc(Cl)c(C(F)(F)F)c2)c1` , tested on NMDA-receptor subtype 2B (Rattus norvegicus, UniProt P35439+Q00960)?
7.41

Could you share what pIC50 was measured for `Cc1nccn1Cc1cn(-c2cccc(I)c2)cn1.Cl.Cl` , tested on NMDA-receptor subtype 2B (Rattus norvegicus, UniProt P35439+Q00960)?
7.49

Could you share what pIC50 was measured for `Cc1ccc(-c2cncc(Cn3ccnc3C)c2)cc1C` , tested on NMDA-receptor subtype 2B (Rattus norvegicus, UniProt P35439+Q00960)?
7.19

Could you share what pIC50 was measured for `CCc1nccn1Cc1cn(-c2cc(OC)cc(C(F)(F)F)c2)cn1` , tested on NMDA-receptor subtype 2B (Rattus norvegicus, UniProt P35439+Q00960)?
7.28

Could you share what pIC50 was measured for `CCc1nccn1Cc1cn(-c2cc(F)cc(Br)c2)cn1.Cl.Cl` , tested on NMDA-receptor subtype 2B (Rattus norvegicus, UniProt P35439+Q00960)?
7.01

Could you share what pIC50 was measured for `CCc1nccn1Cc1cn(-c2ccc(F)c(C(F)F)c2)cn1` , tested on NMDA-receptor subtype 2B (Rattus norvegicus, UniProt P35439+Q00960)?
7.52
